test system: E. cloacae 1Y247; assay: MIC; type: cell-based; settings: Enterobacter cloacae, Table 6, read-out: MIC
Strictly below 2 µg/mL in MIC: Satisfied. Otherwise: Not satisfied.

| molecule | className |
| --- | --- |
| Cc1nc2ncnn2c(SCC2=C(C(=O)O)N3C(=O)C(NC(=O)C(=NOC(C)(C)C(=O)NNC(=O)c4ccc(O)c(O)c4)c4csc(N)n4)C3SC2)c1C (stereo not drawn) | Satisfied |
| CC(C)(ON=C(C(=O)NC1C(=O)N2C(C(=O)O)=C(CSc3c4c(nc5c(C(=O)O)cnn35)CCC4)CSC12)c1csc(N)n1)C(=O)NNC(=O)c1ccc(O)c(O)c1 (stereo not drawn) | Satisfied |
| Cc1nc2nc(C(=O)O)nn2c(SCC2=C(C(=O)O)N3C(=O)C(NC(=O)C(=NOC(C)(C)C(=O)NNC(=O)c4ccc(O)c(O)c4)c4csc(N)n4)C3SC2)c1C (stereo not drawn) | Satisfied |
| Cc1cc(SCC2=C(C(=O)O)N3C(=O)C(NC(=O)C(=NOC(C)(C)C(=O)NNC(=O)c4ccc(O)c(O)c4)c4csc(N)n4)C3SC2)n2nnnc2n1 (stereo not drawn) | Satisfied |
| Cc1nc2c(C(=O)O)cnn2c(SCC2=C(C(=O)O)N3C(=O)C(NC(=O)C(=NOC(C)(C)C(=O)NNC(=O)c4ccc(O)c(O)c4)c4csc(N)n4)C3SC2)c1C (stereo not drawn) | Satisfied |
| CC(C)(ON=C(C(=O)NC1C(=O)N2C(C(=O)O)=C(CSc3c4c(nc5ncnn35)CCC4)CSC12)c1csc(N)n1)C(=O)NNC(=O)c1ccc(O)c(O)c1 (stereo not drawn) | Not satisfied |
| CC(C)(ON=C(C(=O)NC1C(=O)N2C(C(=O)O)=C(CSc3c4c(nc5nc(C(=O)O)nn35)CCC4)CSC12)c1csc(N)n1)C(=O)NNC(=O)c1ccc(O)c(O)c1 (stereo not drawn) | Satisfied |
| Cc1nc2nc(C(=O)O)cc(SCC3=C(C(=O)O)N4C(=O)C(NC(=O)C(=NOC(C)(C)C(=O)NNC(=O)c5ccc(O)c(O)c5)c5csc(N)n5)C4SC3)n2n1 (stereo not drawn) | Not satisfied |

Now consider a different molecule.
**Query** Problem: For the molecule Cc1cc(SCC2=C(C(=O)O)N3C(=O)C(NC(=O)C(=NOC(C)(C)C(=O)NNC(=O)c4ccc(O)c(O)c4)c4csc(N)n4)C3SC2)n2ncc(C(=O)O)c2n1 (stereo not drawn) , is MIC under 2 µg/mL?
**Result** Not satisfied

====

tested on: E. cloacae 5D52-2; experiment: MIC; settings: Enterobacter cloacae, 5D522
The compounds listed here are annotated with their MIC.
Respond with a number, then the unit of measure.

| compound | MIC |
| --- | --- |
| CC(C)(ON=C(C(=O)NC1C(=O)N2C(C(=O)O)=C(CSc3c4c(nc5nc(C(=O)O)nn35)CCC4)CSC12)c1csc(N)n1)C(=O)NNC(=O)c1ccc(O)c(O)c1 (stereo not drawn) | 0.1 µg/mL |
| CC(C)(ON=C(C(=O)NC1C(=O)N2C(C(=O)O)=C(CSc3c4c(nc5c(C(=O)O)cnn35)CCC4)CSC12)c1csc(N)n1)C(=O)NNC(=O)c1ccc(O)c(O)c1 (stereo not drawn) | 0.1 µg/mL |

**Query** Form field: reported MIC of CC(C)(ON=C(C(=O)NC1C(=O)N2C(C(=O)O)=C(COC(N)=O)CSC12)c1csc(N)n1)C(=O)NNC(=O)c1ccc(O)c(O)c1 (stereo not drawn)
**Result** 25 µg/mL
